Target: hCB1R (Homo sapiens, UniProt P21554)
Sequence (P21554 whole entry): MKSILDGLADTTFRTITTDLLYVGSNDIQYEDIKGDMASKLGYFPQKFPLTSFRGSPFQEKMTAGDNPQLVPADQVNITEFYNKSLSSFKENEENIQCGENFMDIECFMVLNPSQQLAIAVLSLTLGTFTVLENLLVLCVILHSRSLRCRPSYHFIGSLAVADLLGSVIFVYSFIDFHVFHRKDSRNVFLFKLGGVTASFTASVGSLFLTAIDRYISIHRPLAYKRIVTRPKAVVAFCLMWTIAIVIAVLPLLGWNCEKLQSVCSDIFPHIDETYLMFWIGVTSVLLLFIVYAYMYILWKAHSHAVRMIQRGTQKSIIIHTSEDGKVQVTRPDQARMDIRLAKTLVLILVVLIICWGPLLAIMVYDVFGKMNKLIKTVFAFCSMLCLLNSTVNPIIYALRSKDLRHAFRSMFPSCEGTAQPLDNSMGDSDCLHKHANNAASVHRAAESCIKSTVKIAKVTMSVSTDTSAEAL
Reported Property: pKd
Answers are plain numbers, as −log10 of the molar value.

Examples with their reported pKd follow.
>>> quantitative_readout("COc1cc(C(C)(C)[C@H](CCCCCN=[N+]=[N-])c2ccccc2)cc(OC)c1[C@H]1C=C(CNC(=O)CCCCCNC(=O)c2ccc3c(c2)C(=O)OC32c3ccc(N(C)C)cc3Oc3cc(N(C)C)ccc32)[C@H]2C[C@@H]1C2(C)C")
6.40
>>> quantitative_readout("CCCCC[C@@H](C(F)(F)F)C(C)(C)c1cc(OC)c([C@H]2C=C(CO)[C@H]3C[C@@H]2C3(C)C)c(OC)c1")
4.93
>>> quantitative_readout("CCCCC[C@H](C(F)(F)F)C(C)(C)c1cc(OC)c([C@H]2C=C(CO)[C@H]3C[C@@H]2C3(C)C)c(OC)c1")
5.19
>>> quantitative_readout("CCN(CC)c1ccc2cc(/C=C/c3ccc(S(=O)(=O)[O-])c[n+]3CCCCCC(=O)NCC3=C[C@H](c4c(OC)cc(C(C)(C)[C@H](CCCCCN=[N+]=[N-])c5ccccc5)cc4OC)[C@@H]4C[C@H]3C4(C)C)c(=O)oc2c1")
5.76
>>> quantitative_readout("COc1cc(C(C)(C)[C@H](CCCCCN=[N+]=[N-])c2ccccc2)cc(OC)c1[C@H]1C=C(CNC(=O)CCCCCNC(=O)c2ccc3c(c2)C2(OC3=O)c3ccc(O)cc3Oc3cc(O)ccc32)[C@H]2C[C@@H]1C2(C)C")
5.89
>>> quantitative_readout("CCCCC[C@@H](c1cccc(F)c1)C(C)(C)c1cc(OC)c([C@H]2C=C(CO)[C@H]3C[C@@H]2C3(C)C)c(OC)c1")
5.71
>>> quantitative_readout("CCCCC[C@H](c1ccccc1)C(C)(C)c1cc(OC)c([C@H]2C=C(CO)[C@H]3C[C@@H]2C3(C)C)c(OC)c1")
5.98
>>> quantitative_readout("CCCCCC(CC)C(C)(C)c1cc(OC)c([C@H]2C=C(CO)[C@H]3C[C@@H]2C3(C)C)c(OC)c1 (stereo partly shown)")
4.89
>>> quantitative_readout("CCCCCC(CCC)C(C)(C)c1cc(OC)c([C@H]2C=C(CO)[C@H]3C[C@@H]2C3(C)C)c(OC)c1 (stereo partly shown)")
5.17

Here's the next entry for you.
Query string: Would you please give the reported pKd of COc1cc(C(C)(C)[C@H](CCCCCN=[N+]=[N-])c2ccccc2)cc(OC)c1[C@H]1C=C(CNC(=O)CCCCCNC(=O)CCCCC[N+]2=C(/C=C/C=C/C=C3/N(CCCS(=O)(=O)O)c4ccc(S(=O)(=O)O)cc4C3(C)C)C(C)(CCCCS(=O)(=O)O)c3cc(S(=O)(=O)[O-])ccc32)[C@H]2C[C@@H]1C2(C)C (stereo partly shown) with hCB1R (Homo sapiens, UniProt P21554)?
Result string: 5.15
